Method Description: compounds producing H2O2 with reducing agent – biochemical, NIH compound library profiling, artefact control for MLSCN library redox annotation, primary screen (AID 878);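 further: compound incubated with DTT at 0.8 mM final as the reducing agent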
Condition Parameters: DTT-dependent redox cycling H2O2, phenol red/HRP absorbance; at 10 µM; stronger effect = higher value; 100% = 100 µM peroxide control, 0% = buffer
About 65 (0.03%) of roughly 200,000 compounds were called active. For the sample, actives were picked, then their nearest neighbours and some compounds at random.
Metric Name: activation (%)
Please state the figure in %; there is no need to write the unit.

For reference, reported activation for Cc1ccc(C(C)(C)C)c(OCCCCN2CCCC2)c1 stands at 0.04

For reference, reported activation for CCc1cccc(C)c1NC(=O)COC(=O)Cc1ccsc1 stands at -0.34

For reference, reported activation for Cc1cccc(OC(=O)c2sc3ncn(C)c(=O)c3c2C)c1 stands at 0.69

For reference, reported activation for C=CCn1c(COc2ccc(F)cc2)nnc1SCC(=O)Nc1cccc(S(N)(=O)=O)c1 stands at -0.73

For reference, reported activation for CN(C)CCCO/N=C(\c1ccccc1)c1ccncc1 stands at 0.18

For reference, reported activation for Cc1cc(C)c(C#N)c(N2CCC(C(N)=O)CC2)n1 stands at -1.8

For reference, reported activation for C=CCN(Cc1nc(-c2cc(OC)c3c(c2)OCO3)oc1C)C1CCS(=O)(=O)C1 (stereo not drawn) stands at -0.18

For reference, reported activation for COC(=O)C1=C(C(=O)OC)C(c2cc([N+](=O)[O-])ccc2O)c2sc(=O)[nH]c2S1 (stereo not drawn) stands at 0.35

For reference, reported activation for CC(=O)N1Cc2ccccc2CC1C(=O)O (stereo not drawn) stands at 0.61

For reference, reported activation for COc1ccc(OC)c(-c2csc(NC(=O)C3=NNC(=O)CC3)n2)c1 stands at -1.87

For reference, reported activation for Cc1ccccc1-n1nnnc1SCCCC(=O)c1ccc(F)cc1 stands at 0.87

For reference, reported activation for CCc1ccc(CN(C)C(=O)CCc2nnc(-c3ccc(-c4ccccc4)cc3)o2)nc1 stands at -1.14

For reference, reported activation for COc1ccc(Cl)cc1-n1c(C)cc(C(=O)OCC(=O)N2CC(=O)Nc3ccccc32)c1C stands at 0.04

For reference, reported activation for O=C(Nc1ccc(Br)cn1)c1ccc([N+](=O)[O-])o1 stands at -1.5

For reference, reported activation for CCOC(=O)Cc1ncccc1C(=O)Nc1ccc(OC)cc1 stands at -0.93

For reference, reported activation for COc1ccc(N2CCN(C(=O)COc3ccc4c(C)cc(=O)oc4c3)CC2)cc1 stands at -0.38

For reference, reported activation for CCN(CC)C(=O)c1sc2nc(-c3ccccc3)ccc2c1N stands at 0.13

For reference, reported activation for CN1C(=O)/C(=C/c2ccco2)SC1=Nc1cccc(C(=O)O)c1 stands at -0.55

For reference, reported activation for COC(=O)c1c(C)[nH]c(C(=O)/C=C/c2ccc(Cl)cc2)c1C stands at 0.44

For reference, reported activation for CCOC(=O)C1=C(CN2CCCCCC2)NC(=O)NC1c1cccc([N+](=O)[O-])c1 (stereo not drawn) stands at -10.2

For reference, reported activation for COc1ccc(C2=NN(c3ccccc3)C(c3cccs3)C2)cc1 (stereo not drawn) stands at 0.96

For reference, reported activation for CCOC(=O)Nc1ccc(S(=O)(=O)N(C)C(C)C)cc1 stands at 0.17

For reference, reported activation for Cc1cccc(-n2c(Cc3cc(=O)[nH]c(=O)[nH]3)nnc2SCC(=O)Nc2cccc(C(F)(F)F)c2)c1 stands at 0.37

For reference, reported activation for CCc1nc2ccccc2c(C(=O)OC2CCCCC2=O)c1C (stereo not drawn) stands at 0.11

For reference, reported activation for O=C(NNC(=O)C1CCN(c2ncccn2)CC1)c1ccccc1 stands at 3.9

For reference, reported activation for CCn1c(SCC(=O)N(C)C2CCS(=O)(=O)C2)nnc1-c1cccs1 (stereo not drawn) stands at -1.15

For reference, reported activation for CC(C)c1nccn1S(=O)(=O)c1cc([N+](=O)[O-])ccc1Cl stands at 1.71

For reference, reported activation for Cc1ccc(CNC(=O)COc2ccc3c(c2)CCC3)cc1 stands at -0.27

For reference, reported activation for CCOc1cc(NC(=S)NCCCOC)c(OCC)cc1NC(=O)c1ccco1 stands at -0.65

For reference, reported activation for COc1cc(NC(=S)NCc2ccco2)c(OC)cc1Cl stands at -0.01

For reference, reported activation for CCOCCCNC(=O)C(=O)NCCCOCC stands at -0.48

For reference, reported activation for CCOC(=O)C1=C(c2ccc(OC)cc2)C(=O)c2ccccc2C1=O stands at 0.28

For reference, reported activation for O=C(C1=C[C@H](C2CC2)C[C@H](OCc2ccc(CO)cc2)O1)N1CCN(Cc2ccccc2)CC1 stands at 0.58

For reference, reported activation for O=C(/C=C/c1cccc([N+](=O)[O-])c1)NCCSCc1ccco1 stands at -0.1

For reference, reported activation for CSCCNCc1cn(-c2ccc(F)cc2F)nc1-c1ccccc1C stands at 0.48

For reference, reported activation for COCCn1c(C)cc(C(=O)COC(=O)/C=C/c2cccc(OC)c2)c1C stands at 0.06

For reference, reported activation for COc1ccc(NC(=O)c2ccccc2[N+](=O)[O-])cc1OC stands at 0.48

For reference, reported activation for COc1ccc(CS(=O)/C(Cl)=C(/Cl)C(=O)Nc2ccc(OC)nc2)cc1 (stereo not drawn) stands at 0.27

For reference, reported activation for O=C(CSc1nnc(-c2ccncc2)o1)NCc1ccc(Cl)cc1 stands at -0.01

For reference, reported activation for Cc1ccc(S(=O)(=O)C2C(=O)NC3(C)CC2c2ccccc2O3)cc1 (stereo not drawn) stands at 0.78

For reference, reported activation for O=C(N/N=C1\CCSC1)c1cc(Cl)ccc1O stands at -0.43

For reference, reported activation for Cc1cc(NC(=O)CSCc2ccccc2C)no1 stands at -0.39

For reference, reported activation for CO/N=C/CC(=O)c1ccc(OC)cc1 stands at -0.35

The origin of these recorded values is PubChem BioAssay AID878.
